# Tested on: MFE-296 (Endometrial Carcinoma)
# Protocol notes: combination Emax (second highest fraction inhibited in the dose matrix, 72 h); higher = more inhibition; extreme values may be limits of the assay
Measured combination Emax of individual entries
Reply with the value as a number alone.

Fill in: MFE-296 (Endometrial Carcinoma) combination Emax for CN(C)CCCOc1ccc(-c2ccc3ncc4c(c3c2)n(C2CCOCC2)c(=O)n4C)cn1 [AZD0156] + C[C@@H]1COCCN1C2=NC(=NC(=C2)C3(CC3)[S@](=N)(=O)C)C4=C5C=CNC5=NC=C4 [AZD6738] (first compound max 1 µM, 7x7, partner max 10 µM) = 0.388

The measured combination Emax that CC1(C)CCC(CN2CCN(c3ccc(C(=O)NS(=O)(=O)c4ccc(NCC5CCOCC5)c([N+](=O)[O-])c4)c(Oc4cnc5[nH]ccc5c4)c3)CC2)=C(c2ccc(Cl)cc2)C1 [Venetoclax] + C1CN(CCC1(C(=O)N[C@@H](CCO)C2=CC=C(C=C2)Cl)N)C3=NC=NC4=C3C=CN4 [Capivasertib] (first compound max 1 µM, 7x7, partner max 3 µM) showed for MFE-296 (Endometrial Carcinoma) is 0.37

----------
# Tested on: OVCA420 (Ovarian Carcinoma)
# Protocol notes: combination Emax (second highest fraction inhibited in the dose matrix, 72 h); higher = more inhibition; extreme values may be limits of the assay
Catalogue of combination Emax values
I only need the number, thanks.

Examples with answers:
Compound | System name | combination Emax
COc1cccc(OCCCN)c1-c1cc(Nc2cnc(C#N)cn2)n[nH]1 [Prexasertib] + Cc1cc2ncnn2cc1Nc1ncc2c(n1)n(C1CCOCC1)c(=O)n2C [AZD7648] (first compound max 1 µM, 7x7, partner max 10 µM) | OVCA420 (Ovarian Carcinoma) | 0.699
CCN(CCO)CCCOc1ccc2c(Nc3cc(CC(=O)Nc4cccc(F)c4)[nH]n3)ncnc2c1 [AZD2811] + C=CCn1c(=O)c2cnc(Nc3ccc(N4CCN(C)CC4)cc3)nc2n1-c1cccc(C(C)(C)O)n1 [AZD1775] (first compound max 1 µM, partner max 1 µM) | OVCA420 (Ovarian Carcinoma) | 0.179
C=CCn1c(=O)c2cnc(Nc3ccc(N4CCN(C)CC4)cc3)nc2n1-c1cccc(C(C)(C)O)n1 [AZD1775] + O=C(c1cc(Cc2n[nH]c(=O)c3ccccc23)ccc1F)N1CCN(C(=O)C2CC2)CC1 [Olaparib] (first compound max 1 µM, partner max 10 µM) | OVCA420 (Ovarian Carcinoma) | 0.881
CS(=O)(=O)CCNCc1ccc(-c2ccc3ncnc(Nc4ccc(OCc5cccc(F)c5)c(Cl)c4)c3c2)o1 [Lapatinib] + C[C@@H](Oc1cc(-c2cnn(C3CCNCC3)c2)cnc1N)c1c(Cl)ccc(F)c1Cl [Crizotinib] (first compound max 10 µM, 7x7, partner max 10 µM) | OVCA420 (Ovarian Carcinoma) | 0.964
Cn1cnc2c(F)c(Nc3ccc(Br)cc3Cl)c(C(=O)NOCCO)cc21 [Selumetinib] + CCN(CCO)CCCOc1ccc2c(Nc3cc(CC(=O)Nc4cccc(F)c4)[nH]n3)ncnc2c1 [AZD2811] (first compound max 10 µM, 7x7, partner max 1 µM) | OVCA420 (Ovarian Carcinoma) | 0.493
Cc1c2c(nn1C)CSCc1cc(n(C)n1)CSc1cc(c3ccccc3c1)OCCCc1c(C(=O)O)n(C)c3c-2c(Cl)ccc13 [AZD5991] + CCN(CCO)CCCOc1ccc2c(Nc3cc(CC(=O)Nc4cccc(F)c4)[nH]n3)ncnc2c1 [AZD2811] (first compound max 1 µM, 7x7, partner max 1 µM) | OVCA420 (Ovarian Carcinoma) | 0.235
CC1(C)CCC(CN2CCN(c3ccc(C(=O)NS(=O)(=O)c4ccc(NCC5CCOCC5)c([N+](=O)[O-])c4)c(Oc4cnc5[nH]ccc5c4)c3)CC2)=C(c2ccc(Cl)cc2)C1 [Venetoclax] + COc1cc(Nc2ncc3c(n2)-c2ccc(Cl)cc2C(c2c(F)cccc2OC)=NC3)ccc1C(=O)O [Alisertib] (first compound max 1 µM, 7x7, partner max 10 µM) | OVCA420 (Ovarian Carcinoma) | 0.326
CN(CCO)CC[C@H](CSc1ccccc1)Nc1ccc(S(=O)(=O)NC(=O)c2ccc(N3CCC([C@@H](O)c4ccccc4-c4ccc(Cl)cc4)CC3)cc2)cc1S(=O)(=O)C(F)(F)F [AZD4320] + C1CN(CCC1(C(=O)N[C@@H](CCO)C2=CC=C(C=C2)Cl)N)C3=NC=NC4=C3C=CN4 [Capivasertib] (first compound max 1 µM, 7x7, partner max 3 µM) | OVCA420 (Ovarian Carcinoma) | 0.0769
COc1cc2c(cc1OCCCCCOc1cc3c(cc1OC)C(=O)N1C=C(C)C[C@H]1C=N3)N=C[C@@H]1CC(C)=CN1C2=O [SG3199] + O=C(c1cc(Cc2n[nH]c(=O)c3ccccc23)ccc1F)N1CCN(C(=O)C2CC2)CC1 [Olaparib] (first compound max 0.001 µM, 7x7, partner max 10 µM) | OVCA420 (Ovarian Carcinoma) | 0.0795
CC(=O)c1c(C)c2cnc(Nc3ccc(N4CCNCC4)cn3)nc2n(C2CCCC2)c1=O [Palbociclib] + CN(CC[C@H](CSC1=CC=CC=C1)NC2=C(C=C(C=C2)S(=O)(=O)NC(=O)C3=CC=C(C=C3)N4CCC(CC4)[C@H](C5=CC=CC=C5C6=CC=C(C=C6)Cl)O)S(=O)(=O)C(F)(F)F)CCO [AZD4320] (first compound max 10 µM, 7x7, partner max 1 µM) | OVCA420 (Ovarian Carcinoma) | 0.21

// CN(CCO)CC[C@H](CSc1ccccc1)Nc1ccc(S(=O)(=O)NC(=O)c2ccc(N3CCC([C@@H](O)c4ccccc4-c4ccc(Cl)cc4)CC3)cc2)cc1S(=O)(=O)C(F)(F)F [AZD4320] + CN(C)CCCOc1ccc(-c2ccc3ncc4c(c3c2)n(C2CCOCC2)c(=O)n4C)cn1 [AZD0156] (first compound max 1 µM, 7x7, partner max 1 µM) : combination Emax value = 0.174

Lab book: combination Emax of CS(=O)(=O)CCNCc1ccc(-c2ccc3ncnc(Nc4ccc(OCc5cccc(F)c5)c(Cl)c4)c3c2)o1 [Lapatinib] + NC1(c2ccc(-c3nc4ccn5c(=O)[nH]nc5c4cc3-c3ccccc3)cc2)CCC1 [MK-2206] (first compound max 10 µM, 7x7, partner max 10 µM) noted as 0.884

The recorded combination Emax for entry COc1nnc2ccc(N3CCC(c4ccc(OCCN5CCN(C)C(=O)[C@H]5C)cc4)CC3)nn12 [AZD5153] + Cc1c2c(nn1C)CSCc1cc(n(C)n1)CSc1cc(c3ccccc3c1)OCCCc1c(C(=O)O)n(C)c3c-2c(Cl)ccc13 [AZD5991] (first compound max 1 µM, 7x7, partner max 1 µM) equals 0.771

# combination Emax of CC1(C)CCC(CN2CCN(c3ccc(C(=O)NS(=O)(=O)c4ccc(NCC5CCOCC5)c([N+](=O)[O-])c4)c(Oc4cnc5[nH]ccc5c4)c3)CC2)=C(c2ccc(Cl)cc2)C1 [Venetoclax] + C=CCn1c(=O)c2cnc(Nc3ccc(N4CCN(C)CC4)cc3)nc2n1-c1cccc(C(C)(C)O)n1 [AZD1775] (first compound max 1 µM, partner max 1 µM) = 0.384
